- System: murine polyomavirus
- TEST_NAME: microbe, parasite or virus in culture
- Assay type: cell-based
TEST_READOUT: selectivity index MN/RDE Toronto
Answer using only a numeral; do not append any unit.

Give the reported selectivity index MN/RDE Toronto for this molecule. NC(N)=NC(=O)NC[C@@H](CO)OCP(=O)(O)O [Compound 10]
1

Give the reported selectivity index MN/RDE Toronto for this molecule. Nc1ncn(C[C@H]2COP(=O)(O)CO2)c(=O)n1 [Compound 11]
17

Give the reported selectivity index MN/RDE Toronto for this molecule. CCCCCCCCCCCCCCCCOCCOP1(=O)CO[C@@H](Cn2cnc(N)nc2=O)CO1 (stereo partly shown) [Compound 12]
34.9

----------
- Tested on: primate polyomavirus (SV40)
- TEST_NAME: microbe, parasite or virus in culture
- Assay type: cell-based, simian polyomavirus SV40
For each of the compounds below, state its selectivity index SV40 strain A2895.
Answer using only a numeral; do not append any unit.

Give the reported selectivity index SV40 strain A2895 for this compound. `Nc1ncn(C[C@H]2COP(=O)(O)CO2)c(=O)n1`
8

Give the reported selectivity index SV40 strain A2895 for this compound. `NC(N)=NC(=O)NC[C@@H](CO)OCP(=O)(O)O`
1

Give the reported selectivity index SV40 strain A2895 for this compound. CCCCCCCCCCCCCCCCOCCOP1(=O)CO[C@@H](Cn2cnc(N)nc2=O)CO1 (stereo partly shown)
44.5

----------
- Tested on: murine polyomavirus
- TEST_NAME: microbe, parasite or virus in culture
- Assay type: cell-based
- MEASUREMENT_CONDITIONS: Alphapolyomavirus muris, UC1, UC1B, read-out: antiviral activity (EC50) 2PTA2
For each of the molecules below, state its EC50.
Return type: number; implicit unit µg/mL.

Give the reported EC50 for this molecule. `Nc1ncn(C[C@@H](CO)OCP(=O)(O)O)c(=O)n1`
3.35

Give the reported EC50 for this molecule. `NC(=NC(=O)NC[C@@H](CO)OCP(=O)(O)O)NC=O.[Na]`
14.8

Give the reported EC50 for this molecule. CCCCCCCCCCCCCCCCOCCOP1(=O)CO[C@@H](Cn2cnc(N)nc2=O)CO1 (stereo partly drawn)
0.3

Give the reported EC50 for this molecule. `Nc1ncn(C[C@H]2COP(=O)(O)CO2)c(=O)n1`
4.39

Give the reported EC50 for this molecule. Nc1ccn(C[C@@H](CO)OCP(=O)(O)O)c(=O)n1 [HPMPC, reference compound]
5.78

----------
- Test system: HSB-2 cells
- MEASUREMENT_CONDITIONS: human
TEST_READOUT: Toxicity MCC (microscopy), HSB-2 cells (µg/mL)
Return type: number; implicit unit µg/mL.

Give the reported Toxicity MCC (microscopy), HSB-2 cells for this molecule. `Nc1ncn(C[C@@H](CO)OCP(=O)(O)O)c(=O)n1`
16

Give the reported Toxicity MCC (microscopy), HSB-2 cells for this molecule. Nc1ccn(C[C@@H](CO)OCP(=O)(O)O)c(=O)n1 [HPMPC, reference compound]
19

----------
- TEST_NAME: in vitro
- MEASUREMENT_CONDITIONS: African green monkey
For each of the molecules below, state its CC50.
Return type: number; implicit unit mg/L.

Give the reported CC50 for this molecule. `Nc1ncn(C[C@@H](CO)OCP(=O)(O)O)c(=O)n1`
129

Give the reported CC50 for this molecule. Nc1ccn(C[C@@H](CO)OCP(=O)(O)O)c(=O)n1 [HPMPC, reference compound]
79.4

Give the reported CC50 for this molecule. `Nc1ncn(C[C@H]2COP(=O)(O)CO2)c(=O)n1`
36.4

Give the reported CC50 for this molecule. CCCCCCCCCCCCCCCCOCCOP1(=O)CO[C@@H](Cn2cnc(N)nc2=O)CO1 (stereo partly drawn)
7.1
